Target: Beta-secretase 1 (Homo sapiens, UniProt P56817)
Sequence (P56817 whole entry): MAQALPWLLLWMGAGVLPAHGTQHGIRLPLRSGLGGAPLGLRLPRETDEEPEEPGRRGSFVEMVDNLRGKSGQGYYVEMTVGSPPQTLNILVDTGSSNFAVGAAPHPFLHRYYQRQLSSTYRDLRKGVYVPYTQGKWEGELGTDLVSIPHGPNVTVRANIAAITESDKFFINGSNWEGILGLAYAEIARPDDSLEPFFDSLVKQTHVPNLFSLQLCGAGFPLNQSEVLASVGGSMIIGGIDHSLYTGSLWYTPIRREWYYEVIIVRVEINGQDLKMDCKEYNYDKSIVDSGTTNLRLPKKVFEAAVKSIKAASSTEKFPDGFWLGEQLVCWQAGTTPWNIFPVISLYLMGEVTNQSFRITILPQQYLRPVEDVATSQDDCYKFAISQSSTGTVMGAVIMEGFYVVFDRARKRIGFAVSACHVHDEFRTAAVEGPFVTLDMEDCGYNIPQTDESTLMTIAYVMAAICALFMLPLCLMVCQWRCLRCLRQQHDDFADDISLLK
Test: Inhibition of BACE1 (unknown origin) by Alpha screen assay
pIC50: −log10 of the molar value.
Listed next: entries and their corresponding pIC50.
MEASURED_ENDPOINT: pIC50

In [3]: df
Out[3]:
                                   compound                            assayed_target  measured_endpoint  result
0  CC1(C)Cc2cc(Cl)ccc2C(NC(Cc2sccc2Br)C(=O)O)=N1 (stereo not drawn)  Beta-secretase 1 (Homo sapiens, UniProt P56817)              pIC50    6.15
1  CCCc1cscc1CC(NC1=NC(C)(C)Cc2cc(Cl)ccc21)C(=O)O (stereo not drawn)  Beta-secretase 1 (Homo sapiens, UniProt P56817)              pIC50    6.21
2  CC1(C)Cc2cc(Cl)ccc2C(NC(Cc2cscc2C2CC2)C(=O)O)=N1 (stereo not drawn)  Beta-secretase 1 (Homo sapiens, UniProt P56817)              pIC50    5.61
